Values were extracted from ChEMBL document CHEMBL6109078.

Target: Lipopolysaccharide (LPS)
Experiment: Binding affinity to LPS (unknown origin) assessed as dissociation constant by BLI analysis
Observation type: Kd (µM)
Express it in µM; write the number only.

Report Kd on Lipopolysaccharide (LPS) for this entry: `CCN(CC)c1ccc(/C=C/c2cc(C(C)(C)C)[o+]c(C(C)(C)C)c2)cc1.O=S(=O)([O-])C(F)(F)F`
4

====

System: Escherichia coli
Experiment: Antibacterial activity against ESBL positive Escherichia coli ATCC 35218 assessed as inhibition of bacterial growth by CLSI protocol based method
Type: functional
Observation type: MIC

Here's what some known entries look like.
item_smiles=CCN(CC)c1ccc(/C=C/c2cc(C(C)(C)C)[o+]c(C(C)(C)C)c2)cc1.O=S(=O)([O-])C(F)(F)F tested_target="Escherichia coli" result="6.25 µg/mL"
item_smiles=CC(C)(C)c1cc(NC(=O)/C=C/C=C/c2ccccc2)cc(C(C)(C)C)c1 tested_target="Escherichia coli" result="> 100 µg/mL"
item_smiles=CN1CCOc2cc(/C=C/c3cc(C(C)(C)C)[o+]c(C(C)(C)C)c3)ccc21.O=S(=O)([O-])C(F)(F)F tested_target="Escherichia coli" result="25 µg/mL"

Let me know recorded MIC for `CCn1c2ccccc2c2cc(/C=C/c3cc(C(C)(C)C)[o+]c(C(C)(C)C)c3)ccc21.O=S(=O)([O-])C(F)(F)F` , thanks.
> 100 µg/mL

Let me know recorded MIC for `CC(C)(C)c1cc(/C=C/c2ccc(N(c3ccccc3)c3ccccc3)cc2)cc(C(C)(C)C)[o+]1.O=S(=O)([O-])C(F)(F)F` , thanks.
> 100 µg/mL

Let me know recorded MIC for `Cn1c(=O)n(C)c2cc(/C=C/c3cc(C(C)(C)C)[o+]c(C(C)(C)C)c3)ccc21.O=S(=O)([O-])C(F)(F)F` , thanks.
> 100 µg/mL

Let me know recorded MIC for `CCN(CCCl)c1ccc(/C=C/c2cc(C(C)(C)C)[o+]c(C(C)(C)C)c2)cc1.O=S(=O)([O-])C(F)(F)F` , thanks.
> 100 µg/mL

Let me know recorded MIC for `CCCCN(CCCC)c1ccc(/C=C/c2cc(C(C)(C)C)[o+]c(C(C)(C)C)c2)cc1.O=S(=O)([O-])C(F)(F)F` , thanks.
> 100 µg/mL

Let me know recorded MIC for `CN(C)c1ccc(/C=C/C=C/c2cc(C(C)(C)C)[o+]c(C(C)(C)C)c2)cc1.O=S(=O)([O-])C(F)(F)F` , thanks.
> 100 µg/mL

Let me know recorded MIC for `CC(C)(C)c1cc(/C=C/c2ccc(N3CCCCC3)cc2)cc(C(C)(C)C)[o+]1.O=S(=O)([O-])C(F)(F)F` , thanks.
> 100 µg/mL

Let me know recorded MIC for `CN(CCC#N)c1ccc(/C=C/c2cc(C(C)(C)C)[o+]c(C(C)(C)C)c2)cc1.O=S(=O)([O-])C(F)(F)F` , thanks.
> 100 µg/mL

====

Below is a list of entries, each paired with its recorded MIC value.
Test system: Escherichia coli
Experiment: Antibacterial activity against ESBL positive Escherichia coli ATCC 35218 assessed as inhibition of bacterial growth by CLSI protocol based method
Type: functional

Here's what some known entries look like.
item_smiles=CC(C)(C)c1cc(NC(=O)/C=C/C=C/c2ccccc2Cl)cc(C(C)(C)C)c1 result="> 100 µg/mL"
item_smiles=CN(C)c1ccc(/C=C/c2cc(C(C)(C)C)[o+]c(C(C)(C)C)c2)cc1.O=S(=O)([O-])C(F)(F)F result="12.5 µg/mL"
item_smiles=CC(C)(C)c1cc(/C=C/c2ccc(N3CCCC3)cc2)cc(C(C)(C)C)[o+]1.O=S(=O)([O-])C(F)(F)F result="6.25 µg/mL"

Read the next record carefully.
Let me know recorded MIC for `CN(CCCl)c1ccc(/C=C/c2cc(C(C)(C)C)[o+]c(C(C)(C)C)c2)cc1.O=S(=O)([O-])C(F)(F)F` , thanks.
> 100 µg/mL
